Please go through the items and note down their ED50.
Tested on: Streptococcus pneumoniae
Assay: Antibacterial activity against penicillin-resistant Streptococcus pneumoniae KT2524 in mouse dosed iv 1 hr after infection
Assay type: functional
Respond with the bare value in mg/kg.

Ask | Param readout = ED50; param system = Streptococcus pneumoniae; param query = C=C[C@]1(C)C[C@@H](OC(=O)CSC2CCN(C(=O)CCn3cnc4c(N5CCNCC5)nc(N)nc43)CC2)[C@@]2(C)C3C(=O)CC[C@@]3(CC[C@H]2C)[C@@H](C)[C@@H]1O (stereo partly drawn) ; response: value
Reply | 1.55

Ask | Param readout = ED50; param system = Streptococcus pneumoniae; param query = `CO/N=C(\C(=O)N[C@@H]1C(=O)N2C(C(=O)O)=C(CSc3nc(=O)c(O)nn3C)CS[C@H]12)c1csc(N)n1` ; response: value
Reply | 27.5

Ask | Lab note: need ED50 with Streptococcus pneumoniae for entry `CN(C)c1ccc(O)c2c1C[C@H]1C[C@H]3[C@H](N(C)C)C(O)=C(C(N)=O)C(=O)[C@@]3(O)C(O)=C1C2=O` , please look it up.
Reply | 50

----------
System: Haemophilus influenzae
Assay: Antibacterial activity against Haemophilus influenzae TH13 by broth microdilution method
Format: functional
Record form. Attribute: MIC. Fill in for each entry.

Ask | Look at this compound and give its reported MIC. CN(C)c1ccc(O)c2c1C[C@H]1C[C@H]3[C@H](N(C)C)C(O)=C(C(N)=O)C(=O)[C@@]3(O)C(O)=C1C2=O [MINOCYCLINE]
Reply | 0.5 µg/mL

Ask | Give the measured MIC of CC[C@H]1OC(=O)[C@H](C)[C@@H](O[C@H]2C[C@@](C)(OC)[C@@H](O)[C@H](C)O2)[C@H](C)[C@@H](O[C@@H]2O[C@H](C)C[C@H](N(C)C)[C@H]2O)[C@](C)(O)C[C@@H](C)C(=O)[C@H](C)[C@@H](O)[C@]1(C)O [ERYTHROMYCIN] .
Reply | 2 µg/mL

Ask | What value of MIC has been recorded for this entry: CN[C@H](CC(C)C)C(=O)N[C@H]1C(=O)N[C@@H](CC(N)=O)C(=O)N[C@H]2C(=O)N[C@H]3C(=O)N[C@H](C(=O)N[C@H](C(=O)O)c4cc(O)cc(O)c4-c4cc3ccc4O)[C@H](O)c3ccc(c(Cl)c3)Oc3cc2cc(c3O[C@@H]2O[C@H](CO)[C@@H](O)[C@H](O)[C@H]2O[C@H]2C[C@](C)(N)[C@H](O)[C@H](C)O2)Oc2ccc(cc2Cl)[C@H]1O [VANCOMYCIN]
Reply | > 128 µg/mL

Ask | I would be grateful if you could share the reported MIC for CO/N=C(\C(=O)N[C@@H]1C(=O)N2C(C(=O)O)=C(CSc3nc(=O)c(O)nn3C)CS[C@H]12)c1csc(N)n1 [CEFTRIAXONE] .
Reply | 0.008 µg/mL

Ask | Recorded MIC for C[C@H]1COc2c(N3CCN(C)CC3)c(F)cc3c(=O)c(C(=O)O)cn1c23.C[C@H]1COc2c(N3CCN(C)CC3)c(F)cc3c(=O)c(C(=O)O)cn1c23.O [LEVOFLOXACIN] , please?
Reply | 0.032 µg/mL

Ask | Returns the measured MIC for the input compound. Input: CC[C@]1(C)C[C@@H](OC(=O)CSc2nnc(N)[nH]2)[C@]2(C)[C@H](C)CC[C@]3(CCC(=O)[C@H]32)[C@@H](C)[C@@H]1O [AZAMULIN]
Reply | 0.5 µg/mL

Ask | What value of measured MIC is listed for C=C[C@]1(C)C[C@@H](OC(=O)CSC2CCN(C(=O)CCn3cnc4c(N5CCNCC5)nc(N)nc43)CC2)[C@@]2(C)C3C(=O)CC[C@@]3(CC[C@H]2C)[C@@H](C)[C@@H]1O (some centres not stated) ?
Reply | 0.125 µg/mL

Values were extracted from ChEMBL document CHEMBL1142399.
